tested on: Metarhizium robertsii_XP_007822519; assay: maximal growth rate with compound as sole sulfur source (OD600 per h); higher = better growth / uptake of the sulfur source; settings: sulfur source concentration 200 µM; S. cerevisiae S288C/BY sul1Δ sul2Δ soa1Δ with transporter ortholog inserted at SOA1 locus; sulfur-free B medium, 4% glucose, pH 6.5, sole sulfur source
Please respond with reported maximal growth rate for every item in the list.
Just the number.

Exercise: Hello, I am looking for reported maximal growth rate with Metarhizium robertsii_XP_007822519 for CCCCS(=O)(=O)O [Butanesulfonate] . Could you help?
Key: 0.00366

Exercise: Value wanted: maximal growth rate (Metarhizium robertsii_XP_007822519) of entry NCCS(=O)(=O)O
Key: 0.00328

Exercise: # query: maximal growth rate | item CSCC[C@H](N)C(=O)O | system: Metarhizium robertsii_XP_007822519
Key: 0.139
